Test: Sample stability of DM1-related impurities with DS-DM1-deJ591 in the autosampler (Hisep RP-HPLC)
Conditions: t = 24 h
What Average peak area was measured for each of the following?
Answer using only a numeral; do not append any unit.

Task: So what does the record say about Average peak area for COc1cc2cc(c1Cl)N(C)C(=O)CC(OC(=O)C(C)N(C)CC(=O)CCSSC(C)CCC(=O)O)C1(C)OC1C(C)C1CC(O)(NC(=O)O1)C(OC)C=CC=C(C)C2 (stereo not shown) [DM1-TPA adduct, DM1-thiopentanoic acid adduct] ?
Result: 245126

Task: So what does the record say about Average peak area for CC(CCC(=O)O)SSc1ccccn1 (stereo not shown) [PPA, 4-(2-pyridyldithio) pentanoic acid] ?
Result: 15595

Task: So what does the record say about Average peak area for COc1cc2cc(c1Cl)N(C)C(=O)C[C@H](OC(=O)[C@H](C)N(C)C(=O)CCS)[C@]1(C)O[C@H]1[C@H](C)[C@@H]1C[C@@](O)(NC(=O)O1)[C@H](OC)/C=C/C=C(\C)C2 [DM1 monomer] ?
Result: 214265

Task: So what does the record say about Average peak area for S=c1cccc[nH]1 [mercaptopyridine] ?
Result: 15620

###

Experiment: Sample stability of DM1-related impurities with DS-DM1-deJ591 in the autosampler (Hisep RP-HPLC)
Conditions: t = 0 h
What Average peak area was measured for each of the following?
Answer using only a numeral; do not append any unit.

Task: So what does the record say about Average peak area for COc1cc2cc(c1Cl)N(C)C(=O)C[C@H](OC(=O)[C@H](C)N(C)C(=O)CCS)[C@]1(C)O[C@H]1[C@H](C)[C@@H]1C[C@@](O)(NC(=O)O1)[C@H](OC)/C=C/C=C(\C)C2 ?
Result: 223667

Task: So what does the record say about Average peak area for CC(CCC(=O)O)SSc1ccccn1 (stereo not shown) ?
Result: 15881

Task: So what does the record say about Average peak area for S=c1cccc[nH]1 ?
Result: 15446

Task: So what does the record say about Average peak area for COc1cc2cc(c1Cl)N(C)C(=O)CC(OC(=O)C(C)N(C)CC(=O)CCSSC(C)CCC(=O)O)C1(C)OC1C(C)C1CC(O)(NC(=O)O1)C(OC)C=CC=C(C)C2 (stereo not shown) ?
Result: 246302
